Test system: GC rich DNA
Test: Disruption of native ds-GC12 DNA (unknown origin) base stacking interaction assessed as decrease in positive peak intensity at 283 nm at DNA base-pair to compound ratio of 1:4 by circular dichroism analysis
Format: nucleic-acid assay
Active and inactive are the calls of the source. No cut-off for these calls is given here.
Measurement Name: Activity

Some solved entries appear below for comparison.
Line Notation: CN(C)CCCNc1nc2cc([N+](=O)[O-])ccc2nc1NCc1ccccc1
Activity: Active
//
Line Notation: COc1ccc(CNc2nc3ccc([N+](=O)[O-])cc3nc2NCCCN(C)C)cc1
Activity: Active
//
Line Notation: CN(C)CCCNc1nc2cc([N+](=O)[O-])ccc2nc1NCc1ccc(F)cc1
Activity: Active
//
Line Notation: CN(C)CCCNc1nc2cc([N+](=O)[O-])ccc2nc1NCc1ccc([N+](=O)[O-])cc1
Activity: Active
//
Line Notation: CN(C)CCCNc1nc2cc([N+](=O)[O-])ccc2nc1NCc1ccc(N)cc1
Activity: Active

Now examine the next entry.
Need Activity of CN(C)CCCNc1nc2cc([N+](=O)[O-])ccc2nc1NCc1ccc(O)cc1 , thanks.
Active

---

System: GC rich DNA
Test: Displacement of Ethidium bromide from native ds-GC12 short DNA (unknown origin) by Stern-Volmer quenching plot analysis
Format: nucleic-acid assay
Listed molecules paired with reported KSV

Line Notation: CN(C)CCCNc1nc2cc([N+](=O)[O-])ccc2nc1NCc1ccc(F)cc1
Measurement Name: KSV
Reported Result: 1.26 10^4/M

Line Notation: CN(C)CCCNc1nc2cc([N+](=O)[O-])ccc2nc1NCc1ccncc1
Measurement Name: KSV
Reported Result: < 0.3 10^4/M

Line Notation: CN(C)CCCNc1nc2cc([N+](=O)[O-])ccc2nc1NCc1ccc(C(F)(F)F)cc1
Measurement Name: KSV
Reported Result: 4.6 10^4/M

Line Notation: Cc1ccc(CNc2nc3ccc([N+](=O)[O-])cc3nc2NCCCN(C)C)cc1
Measurement Name: KSV
Reported Result: 1.7 10^4/M

Line Notation: COc1ccc(CNc2nc3ccc([N+](=O)[O-])cc3nc2NCCCN(C)C)cc1
Measurement Name: KSV
Reported Result: < 1 10^4/M

Line Notation: CN(C)CCCNc1nc2cc([N+](=O)[O-])ccc2nc1NCc1cccs1
Measurement Name: KSV
Reported Result: < 0.3 10^4/M

Line Notation: O=[N+]([O-])c1ccc2nc(NCc3ccccc3)c(N3CCCCC3)nc2c1
Measurement Name: KSV
Reported Result: 0.19 10^4/M

Line Notation: CN(C)CCCNc1nc2cc([N+](=O)[O-])ccc2nc1NCc1ccc(C#N)cc1
Measurement Name: KSV
Reported Result: < 1 10^4/M

API: value(readout= KSV, system= GC rich DNA, query= CN(C)CCCNc1nc2cc([N+](=O)[O-])ccc2nc1NCc1ccco1 )
< 0.3 10^4/M

API: value(readout= KSV, system= GC rich DNA, query= CN(C)CCCNc1nc2cc([N+](=O)[O-])ccc2nc1NCc1ccc([N+](=O)[O-])cc1 )
< 1 10^4/M

API: value(readout= KSV, system= GC rich DNA, query= CN(C)CCCNc1nc2cc([N+](=O)[O-])ccc2nc1NCc1ccccc1 )
< 1 10^4/M

---

Test system: GC rich DNA
Test: Displacement of Ethidium bromide from native ds-GC12 short DNA (unknown origin) by Stern-Volmer quenching plot analysis
Assay type: nucleic-acid assay
Measurement Name: KSV

Some solved entries appear below for comparison.
Line Notation: CN(C)CCCNc1nc2cc([N+](=O)[O-])ccc2nc1NCc1ccc(N)cc1
KSV: < 1 10^4/M
--
Line Notation: CN(C)CCCNc1nc2cc([N+](=O)[O-])ccc2nc1NCc1ccc(O)cc1
KSV: < 1 10^4/M
--
Line Notation: CN(C)CCCNc1nc2cc([N+](=O)[O-])ccc2nc1NCc1ccc(Cl)cc1
KSV: 2.4 10^4/M
--
Line Notation: CN(C)CCCNc1nc2cc([N+](=O)[O-])ccc2nc1NCc1ccc(Br)cc1
KSV: 2.8 10^4/M

Now examine the next entry.
Need KSV of CN(C)CCCNc1nc2cc([N+](=O)[O-])ccc2nc1NCc1ccc(I)cc1 , thanks.
5.8 10^4/M
